- Protocol Text: Stat Signaling Pathway (AID 446);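 also: ME-180 cervical cancer cells given 40 pM IL-6 alongside compound; SIE-controlled beta-lactamase reporter measured as 460/530 nm FRET emission ratio; % is scaled to controls: 0 for no effect and ±100 for the full control effect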
- Test Parameters: ME-180 (cervical carcinoma) SIE beta-lactamase reporter, IL-6 stimulated, 5 h; at 17.2 µM (top of the series)
Results filed as inconclusive are left out.
Let's look at some molecules and their measured activity, negative = inhibition.
The reply should contain only the number, in %.

N=c1c[n+](N2CCOCC2)[n-]o1; 4.68

Which activity, negative = inhibition is reported for this molecule? CCOc1ccc2ccccc2c1C(=O)N[C@@H]1C(=O)N2[C@@H]1SC(C)(C)[C@@H]2C(=O)O 2.51

What does the data say about its activity, negative = inhibition? Entry: NS(=O)(=O)c1cc2c(cc1C(F)(F)F)NC(Cc1ccccc1)NS2(=O)=O (stereo not drawn) 1.32

# activity, negative = inhibition lookup, item OCC(O)CN1CCN(c2ccccc2)CC1 (stereo not drawn) 10.1

Sample CCC(=O)c1ccc(O)cc1 — what was its activity, negative = inhibition? -0.905
